Target: T1, LRP2 CR89 (UniProt P98164 1025-1102, limits assumed)
T1 construct: domain: CR89
T1 sequence (P98164 1025-1102 limits assumed): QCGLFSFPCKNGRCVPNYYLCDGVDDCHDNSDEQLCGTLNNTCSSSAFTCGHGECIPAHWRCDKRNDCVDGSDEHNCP
Experiment: solid-phase binding, OD at highest concentration against highest OD of all ligands

{"columns": ["binder", "reading_unit", "% max (percent of maximum binding)"],
 "data": [
  ["RAP d3 K270E (ligand, also called RAP K270E) GLDRLRRVSHQGYSTEAEFEEPRVIDLWDLAQSANLTDKELEAFREELKHFEAKIEKHNHYQKQLEIAHEELRHAESVGDGERVSRSREKHALLEGRTKELGYTVKKHLQDLSGRISRARHNEL", "%", 2],
  ["MegaRAP1 d3 E270K (ligand, also called MegaRAP1 E270K) GLDRLRRVSHQGYTTEAKFEEPRVIDLWDLAQSANLTDKELEAFREELKYFKAKIEAHNHYQKQLEIAHEKLRHAESVGDGERVSRSREKHALLEGRTKELGYTVKKHLQDLSGRISRARHNEL", "%", 100]
]}

Ref: patent US20120251444A1
